tested on: SEM cells; experiment: cell viability relative to DMSO control; higher = less cytotoxic; conditions: HPLM + 10% dialyzed FBS; 48 h; 1.71 µM
measured endpoint: cell viability (%)
Could you give me the number in %? Just the number is fine.

* CCC(C)CCCCC(=O)N[C@@H](CCN)C(=O)NC(C(=O)N[C@H](CCN)C(=O)N[C@@H]1CCNC(=O)C([C@@H](C)O)NC(=O)[C@@H](CCN)NC(=O)[C@@H](CCN)NC(=O)[C@@H](CC(C)C)NC(=O)[C@H](Cc2ccccc2)NC(=O)[C@H](CCN)NC1=O)[C@@H](C)O (stereo partly specified) | 112
* CN1CCc2c(c3ccccc3n2Cc2ccc(C(=O)NO)cc2)C1 | 83.9
* C[C@H](NC(=O)Cc1cc(F)cc(F)c1)C(=O)N[C@H](C(=O)OC(C)(C)C)c1ccccc1 | 85.6
* CO[C@@H](C(=O)N1Cc2[nH]nc(NC(=O)c3ccc(N4CCN(C)CC4)cc3)c2C1)c1ccccc1 | 24.6
* NC(=O)c1cccc(-c2cc(Nc3ccc(OC(F)(F)F)cc3)ncn2)c1 | 106

Write down the reported cell viability of CCOC(=O)N1CCN(/[N+]([O-])=N/Oc2cc(O/N=[N+](\[O-])N3CCN(C(=O)OCC)CC3)c([N+](=O)[O-])cc2[N+](=O)[O-])CC1 , test system: SEM cells. 74.4

Entry source: the supplement of paper PMC11451515
